Cited source for all entries: ChEMBL document CHEMBL4680217

Field: IC50. Provide a value for each of the compounds that follow.
test system: MOLT-4; assay: Antiproliferative activity against human MOLT-4 cells assessed as reduction in cell viability measured after 48 hrs by MTS assay; type: functional, cell-based; conditions: MOLT-4, 48 h
The response must be a number in nM with no trailing unit.

Bench note: what IC50 did CC1(C)CCC(c2ccc(Cl)cc2)=C(CN2CCN(c3ccc(C(=O)NS(=O)(=O)c4ccc(N[C@H](CCN5CCN(C(=O)CCCCCNc6cccc7c6C(=O)N([C@@H]6CCC(=O)NC6=O)C7=O)CC5)CSc5ccccc5)c(S(=O)(=O)C(F)(F)F)c4)cc3)CC2)C1 show?
518

Then Cc1ncsc1-c1ccc([C@H](C)NC(=O)[C@@H]2C[C@@H](O)CN2C(=O)[C@@H](NC(=O)CCCCCN(C)CC[C@H](CSc2ccccc2)Nc2ccc(S(=O)(=O)NC(=O)c3ccc(N4CCN(CC5=C(c6ccc(Cl)cc6)CCC(C)(C)C5)CC4)cc3)cc2S(=O)(=O)C(F)(F)F)C(C)(C)C)cc1 ?
460

Then CC1(C)CCC(c2ccc(Cl)cc2)=C(CN2CCN(c3ccc(C(=O)NS(=O)(=O)c4ccc(N[C@H](CCN5CCN(C(=O)COCCOCCOCCNc6cccc7c6C(=O)N([C@@H]6CCC(=O)NC6=O)C7=O)CC5)CSc5ccccc5)c(S(=O)(=O)C(F)(F)F)c4)cc3)CC2)C1 ?
211

Then CN(CC[C@H](CSc1ccccc1)Nc1ccc(S(=O)(=O)NC(=O)c2ccc(N3CCN(CC4=C(c5ccc(Cl)cc5)CCC(C)(C)C4)CC3)cc2)cc1S(=O)(=O)C(F)(F)F)C(=O)CCCn1cc(COCCOCCNc2cccc3c2C(=O)N([C@@H]2CCC(=O)NC2=O)C3=O)nn1 ?
770

Then Cc1ncsc1-c1ccc([C@H](C)NC(=O)[C@@H]2C[C@@H](O)CN2C(=O)[C@@H](NC(=O)COCCCOCC(=O)N2CCN(CC[C@H](CSc3ccccc3)Nc3ccc(S(=O)(=O)NC(=O)c4ccc(N5CCN(CC6=C(c7ccc(Cl)cc7)CCC(C)(C)C6)CC5)cc4)cc3S(=O)(=O)C(F)(F)F)CC2)C(C)(C)C)cc1 ?
232

Then Cc1ncsc1-c1ccc([C@H](C)NC(=O)[C@@H]2C[C@@H](O)CN2C(=O)[C@@H](NC(=O)CCCCCCCN2CCN(CC[C@H](CSc3ccccc3)Nc3ccc(S(=O)(=O)NC(=O)c4ccc(N5CCN(CC6=C(c7ccc(Cl)cc7)CCC(C)(C)C6)CC5)cc4)cc3S(=O)(=O)C(F)(F)F)CC2)C(C)(C)C)cc1 ?
181

Then Cc1ncsc1-c1ccc([C@H](C)NC(=O)[C@@H]2C[C@@H](O)CN2C(=O)[C@@H](NC(=O)CCCCCC(=O)N2CCN(CC[C@H](CSc3ccccc3)Nc3ccc(S(=O)(=O)NC(=O)c4ccc(N5CCN(CC6=C(c7ccc(Cl)cc7)CCC(C)(C)C6)CC5)cc4)cc3S(=O)(=O)C(F)(F)F)CC2)C(C)(C)C)cc1 ?
77.1

Then Cc1ncsc1-c1ccc([C@H](C)NC(=O)[C@@H]2C[C@@H](O)CN2C(=O)[C@@H](NC(=O)CCCCN(C)CC[C@H](CSc2ccccc2)Nc2ccc(S(=O)(=O)NC(=O)c3ccc(N4CCN(CC5=C(c6ccc(Cl)cc6)CCC(C)(C)C5)CC4)cc3)cc2S(=O)(=O)C(F)(F)F)C(C)(C)C)cc1 ?
1240

Then Cc1ncsc1-c1ccc([C@H](C)NC(=O)[C@@H]2C[C@@H](O)CN2C(=O)[C@@H](NC(=O)COCCOCCOCCN(C)CC[C@H](CSc2ccccc2)Nc2ccc(S(=O)(=O)NC(=O)c3ccc(N4CCN(CC5=C(c6ccc(Cl)cc6)CCC(C)(C)C5)CC4)cc3)cc2S(=O)(=O)C(F)(F)F)C(C)(C)C)cc1 ?
200

Then Cc1ncsc1-c1ccc([C@H](C)NC(=O)[C@@H]2C[C@@H](O)CN2C(=O)[C@@H](NC(=O)CCOCCC(=O)N2CCN(CC[C@H](CSc3ccccc3)Nc3ccc(S(=O)(=O)NC(=O)c4ccc(N5CCN(CC6=C(c7ccc(Cl)cc7)CCC(C)(C)C6)CC5)cc4)cc3S(=O)(=O)C(F)(F)F)CC2)C(C)(C)C)cc1 ?
324

Then CN(CC[C@H](CSc1ccccc1)Nc1ccc(S(=O)(=O)NC(=O)c2ccc(N3CCN(CC4=C(c5ccc(Cl)cc5)CCC(C)(C)C4)CC3)cc2)cc1S(=O)(=O)C(F)(F)F)C(=O)CCCCCCn1cc(COCCOCCNc2cccc3c2C(=O)N([C@@H]2CCC(=O)NC2=O)C3=O)nn1 ?
177

Then CN(CCCCCNc1cccc2c1C(=O)N([C@@H]1CCC(=O)NC1=O)C2=O)CC[C@H](CSc1ccccc1)Nc1ccc(S(=O)(=O)NC(=O)c2ccc(N3CCN(CC4=C(c5ccc(Cl)cc5)CCC(C)(C)C4)CC3)cc2)cc1S(=O)(=O)C(F)(F)F ?
60.9
